mean nematode size ln(EXT) (ln) listing for selected compounds.
System: Caenorhabditis elegans N2
protocol-text: mean nematode size ln(EXT) after 48 h, plate-adjusted (DMSO control set to 6) (ln(EXT), control-adjusted); higher = larger nematodes / less growth inhibition
applied-conditions: 10 µM; exposure time 48 h
Answer using only a numeral; do not append any unit.

Some solved cases for reference:
compound=CC1(C)CON(Cc2ccccc2Cl)C1=O data_value=6.06
compound=N#Cc1c(Cl)cccc1Cl data_value=5.95
compound="O=C(O)C1=NN(c2ccc(S(=O)(=O)O)cc2)C(=O)C1N=Nc1ccc(S(=O)(=O)O)cc1 (stereo not given)" data_value=5.98
compound="COP(N)(=O)SC (stereo not given)" data_value=5.88

Exercise: # input compound: FC(F)C(F)(F)OCC(Cn1cncn1)c1ccc(Cl)cc1Cl (stereo not given) ; wanted: its mean nematode size ln(EXT) (ln)
Solution: 5.65

Exercise: Follow-up entry: `COCCOCCO`
Solution: 5.85

Exercise: Further, for C=CC(=O)OCCCCCC(C)C [Isooctyl acrylate] ?
Solution: 5.64

Exercise: Input CC1(C)C(C=C(Cl)Cl)C1C(=O)OC(C#N)c1ccc(F)c(Oc2ccccc2)c1 (stereo not given)
Solution: 6.22

Exercise: Also `CO[C@@H]1COCC[C@@H]1N[C@@H]1CC[C@@](C(=O)N2CCc3ncc(C(F)(F)F)cc3C2)(C(C)C)C1` , if possible.
Solution: 5.95

Exercise: What do we get for `CNCc1ccc(NC(=O)c2c[nH]c3c2C(=O)CCC3)cc1` ?
Solution: 6.19

Exercise: Ok, now CC[C@H](C)C(=O)O[C@H]1C[C@H](O)C=C2C=C[C@H](C)[C@H](CC[C@@H](O)C[C@@H](O)CC(=O)O)[C@H]21 [Pravastatin sodium]
Solution: 5.92

Exercise: `CNC(=O)Oc1cccc2ccccc12` ?
Solution: 5.71

Exercise: Thanks! And `CC(=O)NC1(c2cccc(F)c2)CCN(CC[C@@]2(c3ccc(Cl)c(Cl)c3)CN(c3ccccc3)C(=O)CO2)CC1` ?
Solution: 5.88
